Values from patent US20260125382A1

- assayed target: CDK9 (Homo sapiens, UniProt P50750)
- Construct: endogenous in cells; host or cells: MDA-MB-231
- Sequence (P50750 whole entry): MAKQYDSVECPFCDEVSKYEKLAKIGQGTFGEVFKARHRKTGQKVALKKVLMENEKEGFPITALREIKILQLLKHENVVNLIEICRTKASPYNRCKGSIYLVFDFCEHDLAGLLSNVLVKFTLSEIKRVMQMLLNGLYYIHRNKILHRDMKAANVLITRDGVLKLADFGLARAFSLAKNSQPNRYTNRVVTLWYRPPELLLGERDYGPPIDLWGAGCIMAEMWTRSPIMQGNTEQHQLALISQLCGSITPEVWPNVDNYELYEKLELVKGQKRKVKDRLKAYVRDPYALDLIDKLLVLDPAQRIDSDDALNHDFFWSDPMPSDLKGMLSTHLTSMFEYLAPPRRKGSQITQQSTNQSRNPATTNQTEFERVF
- test summary: CDK protein degradation activity (Western blotting), CDK9
- Assay type: cell-based
- test context: MDA-MB-231 cells, 0.1 μM, 16 hours, Western blot
Listing: Enzyme degradation CDK9 (% remaining) @ 0.1 μM of selected compounds
readout: Enzyme degradation CDK9 (% remaining) @ 0.1 μM (%)

compound	quantitative readout
O=C1CC[C@H](N2C(=O)c3ccc(OCC(=O)N4CCC(CN5CCC(c6ccc(Nc7ncnc8c7ncn8C7CC(NC(=O)Cc8ccccc8)C7)cc6)CC5)CC4)cc3C2=O)C(=O)N1 (some centres unmarked)	30
Cc1cccc(C(=O)NC2CC(n3cnc4c(Nc5ccc(N6CCN(C(=O)COc7cccc8c7C(=O)N([C@H]7CCC(=O)NC7=O)C8=O)CC6)cc5)ncnc43)C2)n1 (some centres unmarked)	60
O=C1CC[C@H](N2C(=O)c3ccc(NCC(=O)N4CCC(OCCN5CCN(c6ccc(Nc7ncnc8c7ncn8[C@H]7C[C@@H](NC(=O)Cc8ccccc8)C7)cc6)CC5)CC4)cc3C2=O)C(=O)N1	50
O=C1CC[C@H](N2C(=O)c3ccc(N4CCC(CN5CCC(c6ccc(Nc7ncnc8c7ncn8[C@H]7C[C@@H](NC(=O)Cc8ccccc8)C7)cc6)CC5)CC4)cc3C2=O)C(=O)N1	10

###

- assayed target: CDK2 (Homo sapiens)
- Construct: endogenous in cells; host or cells: MDA-MB-231
- test summary: CDK protein degradation activity (Western blotting), CDK2
- Assay type: cell-based
- test context: MDA-MB-231 cells, 10 μM, 16 hours, Western blot
- Method: In order to evaluate the CDK protein degradation activity of the compounds according to the present invention, the following experiment was conducted. MDA-MB-231 cells were seeded at 5×10^5 cells per well in a 6-well plate. The next day, the compounds were treated in each well to achieve final concentrations of 100 nM, 1 μM, and 10 μM. […] Cell lysates were quantified and separated by size using sodium dodecyl sulfate-polyacrylamide gel electrophoresis (SDS-PAGE). […]
Listing: Enzyme degradation CDK2 (% remaining) @ 10 μM of selected compounds
readout: Enzyme degradation CDK2 (% remaining) @ 10 μM (%)

compound	quantitative readout
Cc1cccc(C(=O)NC2CC(n3cnc4c(Nc5ccc(N6CCN(CC7CCN(C(=O)CNc8cccc9c8C(=O)N([C@H]8CCC(=O)NC8=O)C9=O)CC7)CC6)cc5)ncnc43)C2)n1 (stereo partly drawn)	10
O=C1CCC(N2C(=O)C=C(N3CCC(C(=O)NC[C@H]4CC[C@H](CN5CCN(c6ccc(Nc7ncnc8c7ncn8[C@H]7C[C@@H](NC(=O)Cc8ccccc8)C7)cc6)CC5)CC4)CC3)C2=O)C(=O)N1 (stereo partly drawn)	50

###

- assayed target: CDK9 (Homo sapiens)
- Construct: endogenous in cells; host or cells: MDA-MB-231
- test summary: CDK protein degradation activity (Western blotting), CDK9
- Type: cell-based
- test context: MDA-MB-231 cells, 1 μM, 16 hours, Western blot
readout: Enzyme degradation CDK9 (% remaining) @ 1 μM (%)

molecule	unit label	quantitative readout
Cc1cccc(C(=O)N[C@H]2C[C@@H](n3cnc4c(NCc5cccc(OCCCN6CCN(C(=O)COc7cccc8c7C(=O)N([C@H]7CCC(=O)NC7=O)C8=O)CC6)c5)ncnc43)C2)n1 [Compound 101]	%	30
Cc1cccc(C(=O)NC2CC(n3cnc4c(NCCCN5CCN(CC6CCN(C(=O)COc7ccc8c(c7)C(=O)N([C@@H]7CCC(=O)NC7=O)C8=O)CC6)CC5)ncnc43)C2)n1 (some centres unmarked) [Compound 144]	%	10
Cc1cccc(C(=O)N[C@H]2C[C@@H](n3cnc4c(NC5CCN(CCCCCCNc6ccc7c(c6)C(=O)N([C@H]6CCC(=O)NC6=O)C7=O)CC5)ncnc43)C2)n1 [Compound 17]	%	0
